# Experiment: T. cruzi intracellular proliferation inhibitors, primary screen, cell-based, beta-gal Tulahuen parasites, NIH3T3 host, luminescence (AID 624255)
# Experimental Conditions: T. cruzi beta-gal in NIH3T3, GalScreen luminescence, 90 h; at 8.34 µM
Screen size: about 77,000 compounds; about 4,600 (6%) were called active. Not shown: some 1% with an inconclusive outcome.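 Rule for the calls: active = mean inhibition above about 93%, with at least 55% of replicates each passing it (limit read from the data, passing the limit was not always enough); inconclusive = only one of those two conditions holds; inactive = neither condition holds.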 The list comes from a sample in which actives are over-represented; it also holds close analogues and randomly drawn compounds.
Outcome codes: true (1) (active), false (0) (inactive)

Given Smiles | Label
O=C(NCC1CC1)[C@@H]1[C@@H](CO)[C@@H]2Cn3c(ccc(C4=CCCC4)c3=O)[C@H]1N2CCC(F)(F)F | false (0)
C[C@@H]1CN([C@@H](C)CO)S(=O)(=O)c2ccc(C3=CCCC3)cc2O[C@@H]1CN(C)Cc1ccncc1 | false (0)
O=C(Nc1ccc(F)cc1)N1CCCCN2[C@H](CO)[C@H](c3ccc(-c4ccncc4)cc3)[C@@H]2C1 | false (0)
CC(C)C#Cc1ccc([C@@H]2[C@H]3CN(C(=O)NC(C)C)CCCCN3[C@H]2CO)cc1 | false (0)
CCC(=O)N(C)C[C@H]1Oc2cc(C#CC3CCCC3)ccc2S(=O)(=O)N([C@H](C)CO)C[C@@H]1C | false (0)
O=C(C1CC1)N1CCCCN2[C@H](C1)[C@@H](c1ccc(-c3cccc(F)c3)cc1)[C@@H]2CO | false (0)
C[C@@H]1CN([C@@H](C)CO)C(=O)c2cc(NS(=O)(=O)c3cn(C)cn3)ccc2O[C@@H](C)CCCCO[C@H]1CN(C)S(=O)(=O)c1cn(C)cn1 | false (0)
C[C@@H]1CN([C@@H](C)CO)S(=O)(=O)c2ccc(C3=CCCC3)cc2O[C@H]1CN(C)C(=O)CC1CC1 | false (0)
O=C(C1CC1)N1CCCCN2[C@H](CO)[C@H](c3ccc(-c4cccc(F)c4)cc3)[C@H]2C1 | true (1)
C[C@H](CO)N1C[C@H](C)[C@H](CN(C)C)Oc2cc(C#CC3CC3)ccc2S1(=O)=O | false (0)
C[C@H](CO)N1C[C@H](C)[C@@H](CN(C)Cc2cccnc2)Oc2cc(C3=CCCC3)ccc2S1(=O)=O | false (0)
OC[C@H]1[C@@H](c2ccc(C#CC3(O)CCCC3)cc2)[C@H]2CN(Cc3cncnc3)CCCCN21 | false (0)
O=S(=O)(c1ccc(F)cc1)N1CCCCN2[C@H](CO)[C@@H](c3ccc(C#CC4CCCC4)cc3)[C@H]2C1 | false (0)
O=C(NCc1ccccn1)[C@@H]1[C@@H](CO)[C@@H]2Cn3c(ccc(/C=C/c4ccccc4)c3=O)[C@H]1N2CC1CC1 | true (1)
COCC#Cc1ccc([C@@H]2[C@@H](CO)N3CCCCN(C(=O)COC)C[C@@H]23)cc1 | false (0)
O=C(c1ccc(F)cc1)N1CCCCN2[C@H](C1)[C@@H](c1ccc(C#CC3(O)CCCC3)cc1)[C@@H]2CO | true (1)
CCNC(=O)[C@@H]1[C@@H](CO)[C@@H]2Cn3c(ccc(-c4ccncc4)c3=O)[C@@H]2N1Cc1cc(F)ccc1F | false (0)
O=C(C1CCC1)N1CCCCN2[C@H](CO)[C@H](c3ccc(-c4cccc(F)c4)cc3)[C@H]2C1 | false (0)
COCC(=O)N(C)C[C@H]1Oc2cc(C#CC3CCCC3)ccc2S(=O)(=O)N([C@H](C)CO)C[C@@H]1C | false (0)
COc1cccc(S(=O)(=O)N[C@H]2CC[C@@H](CCN)O[C@H]2CO)c1 | false (0)
CC(=O)N1[C@H](CO)[C@@H](c2ccc(-c3ccccc3)cc2)[C@H]1CNC(=O)C1CC1 | false (0)
CCCC#Cc1cnc2c(c1)C(=O)N([C@H](C)CO)C[C@H](C)[C@H](CN(C)C(=O)c1cnccn1)O2 | false (0)
CC(C)CC#Cc1cnc2c(c1)C(=O)N([C@H](C)CO)C[C@H](C)[C@@H](CN(C)C(=O)Cc1cccnc1)O2 | false (0)
O=C(C1CCCC1)N1CCCCN2[C@@H](CO)[C@H](c3ccc(-c4cccc(F)c4)cc3)[C@@H]2C1 | true (1)
CCC(=O)N1CCCCN2[C@H](C1)[C@@H](c1ccc(C#CCOC)cc1)[C@@H]2CO | false (0)
C[C@@H]1CN([C@H](C)CO)C(=O)c2cc(-c3cccc(C#N)c3)cnc2O[C@H]1CN(C)C(=O)C1CCC1 | false (0)
COCC(=O)N(C)C[C@H]1[C@@H](c2ccc(-c3cccnc3)cc2)[C@H](CO)N1C(C)=O | false (0)
CN1C[C@H](O)COC[C@H]2O[C@H](CC(=O)NC3CCC3)CC[C@@H]21 | false (0)
COc1ccc(S(=O)(=O)N2CCCCN3[C@H](C2)[C@H](c2ccc(C#CCC(C)C)cc2)[C@@H]3CO)cc1 | true (1)
CC(=O)N(C)C[C@@H]1[C@@H](c2ccc(-c3ccccc3F)cc2)[C@@H](CO)N1C(C)=O | true (1)
COCC#Cc1ccc([C@@H]2[C@H](CO)N3CCCCN(C(=O)CN(C)C)C[C@@H]23)cc1 | true (1)
OC[C@@H]1[C@H](c2ccc(C#CC3(O)CCCC3)cc2)[C@H]2CN(Cc3cncnc3)CCCCN12 | true (1)
CC(C)C#Cc1ccc([C@H]2[C@H](CO)N3CCCCN(C(=O)NC(C)C)C[C@@H]23)cc1 | true (1)
